Values were extracted from paper PMC8511016.

molecular target: Src (Homo sapiens); construct: recombinant GST-Src (full-length) and GST-Kinase (270–536 aa); endogenous Src in cell lysates; assay: matrine-bead pull-down of recombinant GST-Src/GST-Kinase competed by free matrine; CETSA and DARTS in lysates; IC50 from Src kinase activity kit in SKOV3 cells ([…] ATP)
Sequence (P12931 2-536): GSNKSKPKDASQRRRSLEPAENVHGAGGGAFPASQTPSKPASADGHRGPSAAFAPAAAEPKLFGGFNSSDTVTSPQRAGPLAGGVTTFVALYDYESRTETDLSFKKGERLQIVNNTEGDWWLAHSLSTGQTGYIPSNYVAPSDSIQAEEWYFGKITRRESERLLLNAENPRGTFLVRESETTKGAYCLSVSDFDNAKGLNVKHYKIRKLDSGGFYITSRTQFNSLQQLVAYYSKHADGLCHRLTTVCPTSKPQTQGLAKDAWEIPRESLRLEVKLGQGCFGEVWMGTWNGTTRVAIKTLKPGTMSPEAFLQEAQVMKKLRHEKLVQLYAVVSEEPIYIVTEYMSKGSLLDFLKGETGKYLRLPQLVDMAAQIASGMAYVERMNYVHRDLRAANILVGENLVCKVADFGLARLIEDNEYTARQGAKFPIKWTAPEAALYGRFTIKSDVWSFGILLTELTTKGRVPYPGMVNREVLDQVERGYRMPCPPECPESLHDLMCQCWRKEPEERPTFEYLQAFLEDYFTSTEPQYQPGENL
measuredParameter: IC50
Write the numeric value and append its unit.

**Query** Which IC50 value belongs to O=C1CCC[C@@H]2[C@H]3CCCN4CCC[C@@H](CN12)[C@@H]34 ?
**Result** 7.37 mM
